molecular target: Calcium and integrin-binding protein 1 (Homo sapiens) (UniProt Q99828); assay: Primary qHTS for Identification of Calcium Integrin Binding Protein 1 (CIB1) Competitor (AID 1508620); settings: CIB1-GST / FITC-alphaIIb peptide fluorescence polarization; series mostly up to 114 µM;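 note: GST tagged CIB1 binding a fluorescein labelled alphaIIb integrin peptide tracer; top concentration of the series differs between compounds; % is set by controls: 0 for no effect and ±100 for the full control effect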
Sequence (Q99828 whole entry, looked up): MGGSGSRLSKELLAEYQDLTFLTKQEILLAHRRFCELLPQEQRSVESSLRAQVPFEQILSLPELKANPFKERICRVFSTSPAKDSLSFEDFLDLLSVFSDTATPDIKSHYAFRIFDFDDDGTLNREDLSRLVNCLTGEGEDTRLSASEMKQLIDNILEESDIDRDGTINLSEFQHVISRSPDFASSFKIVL
Records with an inconclusive call do not appear. Calls of active or inactive are those of the source. Calls come from the whole dose curve; as a rule, active = well fitted inhibition curve with a large enough effect; inconclusive = small, poorly fitted or top-dose-only effect; inactive = flat fitted curve, though single readings scatter.
Measured Metric: outcome

{"Compound": "COc1ccc(OC)c(C2=Nn3c(nnc3-c3ccc(OC)c(OC)c3)SC2)c1", "Measured On": "Calcium and integrin-binding protein 1 (Homo sapiens) (UniProt Q99828)", "Measured Metric": "outcome", "Obs Value": "inactive"}
{"Compound": "COc1cc(-c2ccc3ncnc(NCC4CCCO4)c3c2)cc(OC)c1OC (configuration not stated)", "Measured On": "Calcium and integrin-binding protein 1 (Homo sapiens) (UniProt Q99828)", "Measured Metric": "outcome", "Obs Value": "inactive"}
{"Compound": "CC(C)(C)OC(=O)N[C@@H](Cc1ccc(O[S+](=O)([O-])c2cccnc2)cc1)C(=O)N1CCN(c2ccccc2)CC1", "Measured On": "Calcium and integrin-binding protein 1 (Homo sapiens) (UniProt Q99828)", "Measured Metric": "outcome", "Obs Value": "inactive"}
{"Compound": "Cc1cc(C)nc(/N=C(\\NC#N)N2CCN(c3cccc(C(F)(F)F)c3)CC2)c1", "Measured On": "Calcium and integrin-binding protein 1 (Homo sapiens) (UniProt Q99828)", "Measured Metric": "outcome", "Obs Value": "inactive"}
{"Compound": "Cc1ccc(-n2cnc3cc(C(=O)N4CCCCC4)ccc32)cc1", "Measured On": "Calcium and integrin-binding protein 1 (Homo sapiens) (UniProt Q99828)", "Measured Metric": "outcome", "Obs Value": "inactive"}
{"Compound": "O=C(O)c1cccc(S(=O)(=O)Nc2nccs2)c1", "Measured On": "Calcium and integrin-binding protein 1 (Homo sapiens) (UniProt Q99828)", "Measured Metric": "outcome", "Obs Value": "inactive"}
{"Compound": "O=C(C1CCN(c2nc(-c3ccc(Br)cc3)cs2)CC1)N1CCOCC1", "Measured On": "Calcium and integrin-binding protein 1 (Homo sapiens) (UniProt Q99828)", "Measured Metric": "outcome", "Obs Value": "inactive"}
{"Compound": "O=C(/C=C/c1ccc(OC(F)(F)F)cc1)Nc1cccc([S+](=O)([O-])Nc2ccccc2F)c1", "Measured On": "Calcium and integrin-binding protein 1 (Homo sapiens) (UniProt Q99828)", "Measured Metric": "outcome", "Obs Value": "inactive"}

Briefly, outcome measured for N#CN1CCC(NC(=O)c2ccc(F)cc2)CC1 : inactive

Briefly, outcome measured for COc1ccc(NC(=O)Nc2ccc(-c3nc4ccccc4[nH]3)cc2)cc1OC : inactive

Briefly, outcome measured for Cc1cn([C@H]2C[C@H](N[S+](=O)([O-])Cc3ccc(Cl)cc3)[C@@H](CO)O2)c(=O)[nH]c1=O : inactive

* * *

assay: qHTS drug screen for cell cycle checkpoint inhibitors in PARPi-resistant BRCA-mutant ovarian cancer cell lines. (AID 1963452); settings: PEO1/OlaR viability, CellTiter-Glo luminescence, 96 h
Active and inactive are the calls of the source. Calls follow the shape of the full dose curve.
Your response should consist of one outcome taken from active, inactive

Incoming: How was CO[C@H]1/C=C\C=C(\C)C(=O)NC2=CC(=O)C(NCCN(C)C)=C(C[C@@H](C)C[C@H](OC)[C@H](O)[C@@H](C)/C=C(/C)[C@@H]1OC(N)=O)C2=O classified in this test?
Outgoing: active

Incoming: How was Cc1nnn(C)c1-c1cnc2c3ccc(C(C)(C)O)cc3n([C@H](c3ccccc3)C3CCOCC3)c2c1 classified in this test?
Outgoing: active

Incoming: How was O=C(/C=C/c1cccnc1)NCCCCC1CCN(C(=O)c2ccccc2)CC1 classified in this test?
Outgoing: active

Incoming: How was COc1ccc2[nH]c3c(c2c1)CCN[C@]31CS[C@@H]2c3c(OC(C)=O)c(C)c4c(c3[C@H](COC1=O)N1[C@@H]2[C@H]2c3c(cc(C)c(OC)c3O)C[C@@H]([C@@H]1O)N2C)OCO4 classified in this test?
Outgoing: active

Incoming: How was CC(C)(C)c1[nH]cnc1/C=c1\[nH]c(=O)/c(=C/c2ccccc2)[nH]c1=O classified in this test?
Outgoing: active

Incoming: How was O=C(/C=C/c1ccc(CN(CCO)CCc2c[nH]c3ccccc23)cc1)NO classified in this test?
Outgoing: active

Incoming: How was CC(=O)c1cc2c(o1)C(=O)c1ccccc1C2=O classified in this test?
Outgoing: active

Incoming: How was C/C=C1\NC(=O)[C@H]2CSSCC/C=C\[C@H](CC(=O)N[C@H](C(C)C)C(=O)N2)OC(=O)[C@H](C(C)C)NC1=O classified in this test?
Outgoing: active

Incoming: How was COc1cc2c3c(n(CCCNCCO)c(=O)c2cc1OC)-c1cc2c(cc1C3=O)OCO2 classified in this test?
Outgoing: active

Incoming: How was CS[C@H]1SC[C@@H]2C(=O)N(C)[C@H](C(C)C)C(=O)OC[C@H](NC(=O)c3cnc4ccccc4n3)C(=O)N[C@H](C)C(=O)N(C)[C@H]1C(=O)N(C)[C@H](C(C)C)C(=O)OC[C@H](NC(=O)c1cnc3ccccc3n1)C(=O)N[C@H](C)C(=O)N2C classified in this test?
Outgoing: active

Incoming: How was CN(C)C(N)=NC(=N)N classified in this test?
Outgoing: inactive

Incoming: How was Cc1c(-c2ccc(-c3ccccc3F)cc2)nc2ccc(F)cc2c1C(=O)O classified in this test?
Outgoing: active

Incoming: How was CCc1cnn2c(NCc3ccc[n+]([O-])c3)cc(N3CCCC[C@H]3CCO)nc12 classified in this test?
Outgoing: active

Incoming: How was COc1nnc2ccc(N3CCC(c4ccc(OCCN5CCN(C)C(=O)[C@H]5C)cc4)CC3)nn12 classified in this test?
Outgoing: active

Incoming: How was CC[C@@]1(O)C(=O)OCc2c1cc1n(c2=O)Cc2c-1nc1ccccc1c2CCNC(C)C classified in this test?
Outgoing: active

Incoming: How was CNCCCOc1cc(F)c(-c2c(Cl)nc3ncnn3c2N[C@@H](C)C(F)(F)F)c(F)c1 classified in this test?
Outgoing: active

* * *

test: qHTS to identify inhibitors of the type 1 interferon - major histocompatibility complex class I in skeletal muscle: primary screen against the NCATS Mechanism Interrogation Plate v5.0 (MIPE) Libary (AID 1347411); details: iHSKM cells + IFN-b, HiBiT-tagged MHC-I luminescence, 24 h; series mostly up to 45.8 µM; note: nearly all actives have a fitted effect of over 65% in size; note: potency is the fitted concentration of half-maximal effect
Records with an inconclusive call do not appear. The source made the active and inactive calls. Calls come from the whole dose curve; as a rule, active = well fitted inhibition curve with a large enough effect; inconclusive = small, poorly fitted or top-dose-only effect; inactive = no such curve, though single readings can be large or run the other way.

{"Compound": "CCNC(=O)Nc1ccc(Oc2ncnc(N)c2/C=N/OC)cc1Cl", "Potency": "inactive"}
{"Compound": "Cc1ccc(NC(=O)c2ccc3c(c2)OCCO3)cc1NC(=O)c1ccc2nc(OCCN3CCCC3)ccc2c1", "Potency": "286 nM (active)"}
{"Compound": "Nc1nc(OC(c2ccc(-c3cccc(F)c3)cc2)C(F)(F)F)cc(-c2ccc(C[C@@H](N)C(=O)O)cc2)n1 (some centres undefined)", "Potency": "inactive"}
{"Compound": "CN(C)CCNC(=O)NC[C@H]1CC[C@@H]2[C@H](O1)c1cc(C(F)(F)F)ccc1N[C@H]2c1ccccc1", "Potency": "inactive"}

* * *

biological target: Rap guanine nucleotide exchange factor 4 (Homo sapiens); assay: Confirmatory qHTS for agonist of cAMP-regulated guanine nucleotide exchange factor 4 (EPAC2) (AID 1645884); settings: EPAC2 GEF activity, Rap1B-BODIPY-GDP fluorescence, percent relative to cAMP agonist control; series mostly up to 154 µM;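 note: nucleotide exchange releases bodipy-GDP from Rap1 and this lowers its fluorescence; % is set by controls: 0 for no effect and ±100 for the full control effect; nearly all actives have a fitted effect of over 65% in size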
Inconclusive results are not listed. Calls of active or inactive are those of the source. The call rests on the fitted dose curve; in most records, active means well fitted activation curve with a large enough effect; inconclusive means small, poorly fitted or top-dose-only effect; inactive means no such curve, though single readings can be large or run the other way.
Measured Metric: activation

Examples with answers:
{"Compound": "O=C(c1cccc(F)c1)N1CCC2(CCN(Cc3cc(C(F)(F)F)cc(C(F)(F)F)c3)CC2)CC1", "Measured On": "Rap guanine nucleotide exchange factor 4 (Homo sapiens)", "Measured Metric": "activation", "Obs Value": "inactive"}
{"Compound": "CCC(=O)NC(c1ccco1)c1cc(Cl)c2ccccc2c1O (configuration not stated)", "Measured On": "Rap guanine nucleotide exchange factor 4 (Homo sapiens)", "Measured Metric": "activation", "Obs Value": "inactive"}
{"Compound": "CCOc1ccccc1CNc1ncnc2ccc(-c3c(C)noc3C)cc12", "Measured On": "Rap guanine nucleotide exchange factor 4 (Homo sapiens)", "Measured Metric": "activation", "Obs Value": "inactive"}
{"Compound": "COc1ccc(-n2c(=O)c(-c3cc(F)cc(F)c3)nc3cnc(N(C)C)nc32)cc1", "Measured On": "Rap guanine nucleotide exchange factor 4 (Homo sapiens)", "Measured Metric": "activation", "Obs Value": "inactive"}
{"Compound": "COc1ccccc1CNc1ccnc(-c2ccc3c(c2)OCO3)n1", "Measured On": "Rap guanine nucleotide exchange factor 4 (Homo sapiens)", "Measured Metric": "activation", "Obs Value": "inactive"}
{"Compound": "COCC(=O)N1CCC2(CC1)CN(c1ccccn1)C2", "Measured On": "Rap guanine nucleotide exchange factor 4 (Homo sapiens)", "Measured Metric": "activation", "Obs Value": "inactive"}
{"Compound": "CCN(CC)C(=O)CC(c1ccc2c(c1)OCO2)c1c(O)cc(OC)cc1OC (configuration not stated)", "Measured On": "Rap guanine nucleotide exchange factor 4 (Homo sapiens)", "Measured Metric": "activation", "Obs Value": "inactive"}
{"Compound": "O=C(CCc1ccccc1)Nc1ccc(S(=O)(=O)Nc2nccs2)cc1", "Measured On": "Rap guanine nucleotide exchange factor 4 (Homo sapiens)", "Measured Metric": "activation", "Obs Value": "9.99% [at 17.1 µM] (inactive)"}

Briefly, activation measured for CC(C)=CCc1c2c(c3occ(-c4ccc(O)c(O)c4)c(=O)c3c1O)C=CC(C)(C)O2 : inactive

Briefly, activation measured for O=C(c1cnccn1)N1CCC[C@@]2(CCN(C(c3ccccc3)c3ccccc3)C2)C1 : inactive

Briefly, activation measured for Cc1noc(C)c1C(=O)N1CCC2(CCN(Cc3ccc(C#N)cc3)CC2)CC1 : inactive

Briefly, activation measured for O=c1cnc2cnc(Oc3cccc(Cl)c3)nc2n1Cc1ccc(F)cc1 : inactive

Briefly, activation measured for COCC(=O)N1CCC2(CC1)CCN(C(=O)Nc1cccc(C#N)c1)CC2 : inactive

Briefly, activation measured for COc1ccc(C(=O)N2CCC3(CC2)CN(c2ccncc2)C3)cc1 : inactive

Briefly, activation measured for CC(=O)NC(c1ccco1)c1cc(Cl)c2ccccc2c1O (configuration not stated) : 3.62% [at 17.1 µM] (inactive)

Briefly, activation measured for Cc1ccc(P(=O)(CSC(=N)N)c2ccc(C)cc2)cc1 : -5.01% [at 17.1 µM] (inactive)

Briefly, activation measured for Nc1ncnc2c1C(c1ccccc1)c1c(ccc3ccccc13)O2 (configuration not stated) : inactive

Briefly, activation measured for O=C(CSc1nnc(-c2cccc(S(=O)(=O)N3CCCC3)c2)n1-c1ccccc1)Nc1ccc(C(=O)O)cc1 : -2.44% [at 17.1 µM] (inactive)

Briefly, activation measured for COc1ccc(N2C(=O)c3ccccc3C2=O)cc1 : inactive

Briefly, activation measured for O=C1Cc2cc(S(=O)(=O)N3CCNCC3)ccc2N1 : 3.97% [at 17.1 µM] (inactive)

Briefly, activation measured for CN(Cc1ccco1)c1ncnc2ccc(-c3ccccc3Cl)cc12 : inactive

Briefly, activation measured for O=C(Oc1ccccc1)N1CCC2(CCCN(c3ccccc3)C2)CC1 : inactive
